Assay: inhibitors of TWEAK-Fn14 signaling, primary screen, luciferase reporter cells, uHTS (AID 1159606)
Conditions: TWEAK-stimulated Fn14 reporter cells, luciferase luminescence, 8 h; at 10 µM; active compounds read high
About 7,300 (2%) of roughly 360,000 compounds were called active. The list comes from a sample in which actives are over-represented; it also holds close analogues and randomly drawn compounds.
Property name: inhibition

Check out these entries, answers already filled in.
[[record]]
compound = "CN(c1ccccc1)S(=O)(=O)c1cc(C(=O)Nc2nc3ccccc3[nH]2)ccc1Cl"
property_name = "inhibition"
reading = "78.9% (active)"

[[record]]
compound = "Cc1ccc(C(=O)NCC(=O)OCc2nnc(-c3ccccc3)o2)cc1"
property_name = "inhibition"
reading = "9.26% (inactive)"

[[record]]
compound = "Cc1ccc(N2C(=O)CN=C2Nc2nc(C)cc(C)n2)cc1"
property_name = "inhibition"
reading = "4.62% (inactive)"

[[record]]
compound = "CCCSC(=S)NC1CCS(=O)(=O)C1 (centres undefined)"
property_name = "inhibition"
reading = "78.9% (active)"


IN: Please look up its inhibition: `CC(=O)Nc1ccc(S(=O)(=O)N2CCC(C(=O)N[C@@H](Cc3ccccc3)C(=O)O)CC2)cc1`
OUT: -3.83% (inactive)

IN: Try CCC(C)NC(=O)CN(C1CCCCC1)S(C)(=O)=O (centres undefined) next.
OUT: 5.8% (inactive)

IN: Next record, please: `CCCCn1c(O)c(N=NC(=O)Cn2c(C(F)(F)F)nc3ccccc32)c2ccccc21`
OUT: -12.1% (inactive)

IN: Queued: `Cc1ccc(C(=O)N/C(=C\c2cccs2)C(=O)NCCc2ccccn2)cc1C`
OUT: 5.63% (inactive)

IN: Also need `CCc1ccccc1OCC(=O)Nc1ccc2c(c1)OCCO2` , thanks.
OUT: -1.57% (inactive)
